# Test system: EPLC-272H
# test: relative viability (nuclei count vs DMSO), 5 days (fraction); higher = more cells survive
# details: first compound 8 µM
quantityName: relative viability
Please give the numeric answer without any surrounding text.

O=c1[nH]c2ccccc2n1C1CCN(CCCC(c2ccc(F)cc2)c2ccc(F)cc2)CC1 [Pimozide] + CS(=O)(=O)N1CCN(Cc2cc3nc(-c4cccc5[nH]ncc45)nc(N4CCOCC4)c3s2)CC1 [Pictilisib] (partner 1 µM)	0.238
O=c1[nH]c2ccccc2n1C1CCN(CCCC(c2ccc(F)cc2)c2ccc(F)cc2)CC1 [Pimozide] + N=C(N)NC(=N)NCCc1ccccc1 [Phenformin] (partner 250 µM)	0.253
O=c1[nH]c2ccccc2n1C1CCN(CCCC(c2ccc(F)cc2)c2ccc(F)cc2)CC1 [Pimozide] + CC(C)C[C@H](NC(=O)[C@H](Cc1ccccc1)NC(=O)c1cnccn1)B(O)O [Bortezomib] (partner 0.002 µM)	0.91
O=c1[nH]c2ccccc2n1C1CCN(CCCC(c2ccc(F)cc2)c2ccc(F)cc2)CC1 [Pimozide] + Cc1cc(Nc2cc(N3CCN(C)CC3)nc(Sc3ccc(NC(=O)C4CC4)cc3)n2)n[nH]1 [Tozasertib] (partner 0.1 µM)	0.189
O=c1[nH]c2ccccc2n1C1CCN(CCCC(c2ccc(F)cc2)c2ccc(F)cc2)CC1 [Pimozide] + Nc1ncn([C@H]2C[C@H](O)[C@@H](CO)O2)c(=O)n1 [Decitabine] (partner 2 µM)	0.318

Shift focus to the following entry.
Record O=c1[nH]c2ccccc2n1C1CCN(CCCC(c2ccc(F)cc2)c2ccc(F)cc2)CC1 [Pimozide] + CS(=O)(=O)CCNCc1ccc(-c2ccc3ncnc(Nc4ccc(OCc5cccc(F)c5)c(Cl)c4)c3c2)o1 [Lapatinib] (partner 2 µM) , field relative viability: 0.689
